Source of measurements: patent US10125126B2

- Test system: Botrytis cinerea
- ASSAY TEXT: In vivo preventive test on Botrytis cinerea (grey mould)
- COND: 500 ppm of active ingredient; gherkin plants; 4 to 5 days after contamination
- Protocol: In Vivo Preventive Test on Botrytis cinerea (Grey Mould) […] Gherkin plants (“Vert petit de Paris” variety), sown in starter cups on a 50/50 peat soil pozzolana substrate and grown at 24° C., are treated at the Z11 cotyledon stage by spraying with the active ingredient prepared as described above. Plants, used as controls, are treated with the mixture of acetone/tween/DMSO/water not containing the active material. […]
Form field: Efficacy (one value per entry).
REPORTED ENDPOINT: Efficacy (%)

>>> reading("CC(C)c1ccc(-c2csc3ccccc23)cc1CN(C(=O)c1c(C(F)F)nn(C)c1F)C1CC1 [I.157]")
100
>>> reading("CC(C)c1ccc(-c2coc3ccccc23)cc1CN(C(=O)c1c(C(F)F)nn(C)c1F)C1CC1 [I.132]")
99
>>> reading("Cn1nc(C(F)F)c(C(=S)N(Cc2ccccc2-c2ccsc2)C2CC2)c1F [I.73]")
100
>>> reading("COc1ccsc1-c1cc(F)ccc1CN(C(=O)c1c(C(F)F)nn(C)c1F)C1CC1 [I.122]")
100
>>> reading("Cc1csc(-c2ccc(F)cc2CN(C(=O)c2c(C(F)F)nn(C)c2F)C2CC2)c1 [I.101]")
99
>>> reading("Cn1ccc(-c2ccccc2CN(C(=O)c2c(C(F)F)nn(C)c2F)C2CC2)c1 [I.49]")
99
>>> reading("Cn1nc(C(F)F)c(C(=O)N(Cc2ccccc2-c2ccoc2)C2CC2)c1F [I.29]")
100
>>> reading("Cn1nc(C(F)F)c(C(=O)N(Cc2cc(Cl)ccc2-c2ccsc2)C2CC2)c1F [I.66]")
91
>>> reading("Cn1nc(C(F)F)c(C(=O)N(Cc2cc(-c3ccc(Cl)s3)ccc2Cl)C2CC2)c1F [I.143]")
98

* * *

- Tested on: Septoria tritici
- ASSAY TEXT: In vivo preventive test on Septoria tritici (wheat)
- COND: 500 ppm of active ingredient; wheat plants; 24 days after contamination
- Procedure: In Vivo Preventive Test on Septoria tritici (Wheat) […] Wheat plants (“Scipion” variety), sown in starter cups on a 50/50 peat soil pozzolana substrate and grown at 22° C., are treated at the 1 leaf stage (10 cm height) by spraying with the active ingredient prepared as described above. Plants, used as controls, are treated with the mixture of acetone/tween/DMSO/water not containing the active material. […]
REPORTED ENDPOINT: Efficacy (%)

>>> reading("Cc1cscc1-c1ccccc1CN(C(=O)c1c(C(F)F)nn(C)c1F)C1CC1 [I.105]")
80
>>> reading("Cn1ccc(-c2ccccc2CN(C(=O)c2c(C(F)F)nn(C)c2F)C2CC2)c1 [I.49]")
96
>>> reading("Cn1cc(C(=O)N(Cc2ccccc2-c2ccc(Cl)s2)C2CC2)c(C(F)F)n1 [I.140]")
96
>>> reading("Cn1nc(C(F)F)c(C(=O)N(Cc2cc(F)ccc2-c2csc3ccccc23)C2CC2)c1F [I.154]")
96
>>> reading("Cn1nc(C(F)F)c(C(=O)N(Cc2ccccc2-c2cccs2)C2CC2)c1Cl [I.78]")
83
>>> reading("Cc1nn(C)c(C)c1-c1ccc(Cl)cc1CN(C(=O)c1c(C(F)F)nn(C)c1F)C1CC1 [I.113]")
70
>>> reading("COc1ccsc1-c1ccc(F)cc1CN(C(=O)c1c(C(F)F)nn(C)c1F)C1CC1 [I.119]")
90
>>> reading("Cc1cscc1-c1ccc(Cl)cc1CN(C(=O)c1c(C(F)F)nn(C)c1F)C1CC1 [I.104]")
88
>>> reading("Cn1nc(C(F)F)c(C(=O)N(Cc2cc(-c3ccc(Cl)s3)ccc2Cl)C2CC2)c1F [I.143]")
100
>>> reading("Cn1nc(C(F)F)c(C(=O)N(Cc2cc(Cl)ccc2-c2ccsc2Cl)C2CC2)c1F [I.137]")
97
>>> reading("Cn1nc(C(F)F)c(C(=O)N(Cc2cc(Cl)ccc2-c2coc3ccccc23)C2CC2)c1F [I.130]")
93
>>> reading("CC(C)c1ccc(-c2ccn(C)c2)cc1CN(C(=O)c1c(C(F)F)nn(C)c1F)C1CC1 [I.50]")
97
>>> reading("Cc1csc(-c2ccc(C(C)C)c(CN(C(=O)c3c(C(F)F)nn(C)c3F)C3CC3)c2)c1 [I.106]")
80
>>> reading("COc1ccsc1-c1ccccc1CN(C(=O)c1c(C(F)F)nn(C)c1F)C1CC1 [I.120]")
80
>>> reading("Cn1nc(C(F)F)c(C(=O)N(Cc2ccccc2-c2ccsc2)C2CC2)c1Cl [I.76]")
75
